Values from patent US20110118131A1

Target: T1, Ep-CAM (UniProt P16422 24-265, limits assumed)
T1 construct: Amine coupled to a CM5 chip in the Biacore assays
T1 sequence (looked up): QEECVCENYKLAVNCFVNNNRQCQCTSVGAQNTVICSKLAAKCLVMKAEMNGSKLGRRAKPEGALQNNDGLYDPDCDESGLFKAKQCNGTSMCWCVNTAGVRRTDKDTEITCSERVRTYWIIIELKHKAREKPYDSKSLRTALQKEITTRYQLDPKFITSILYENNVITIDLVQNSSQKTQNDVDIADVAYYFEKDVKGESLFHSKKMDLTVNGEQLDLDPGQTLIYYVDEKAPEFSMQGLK
Assay: Biacore, Fab periplasmic extract
readout-name: fold difference in affinity vs parental ING-1 (fold)
Just the number in fold, nothing appended.

Worked examples, 3 binders total:
ING-1 light chain Y54D (Fab, V domains shown, Fab, periplasmic extract) VH: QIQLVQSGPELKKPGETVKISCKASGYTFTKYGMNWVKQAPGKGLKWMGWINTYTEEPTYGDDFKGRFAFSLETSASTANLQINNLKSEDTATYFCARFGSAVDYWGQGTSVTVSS VL: DIVMTQAAFSNPVTLGTSGSISCRSSKSLLHSNGITYLYWYLQKPGQSPQLLIDQMSNLASGVPDRFSSSGSGTDFTLRISRVEAEDVGVYYCAQNLELPRTFGGGTKLEMKR : 0.03
ING-1 light chain Q55D (Fab, V domains shown, Fab, periplasmic extract) VH: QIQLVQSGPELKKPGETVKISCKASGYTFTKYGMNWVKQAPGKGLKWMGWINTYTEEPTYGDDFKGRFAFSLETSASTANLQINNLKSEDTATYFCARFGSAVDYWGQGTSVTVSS VL: DIVMTQAAFSNPVTLGTSGSISCRSSKSLLHSNGITYLYWYLQKPGQSPQLLIYDMSNLASGVPDRFSSSGSGTDFTLRISRVEAEDVGVYYCAQNLELPRTFGGGTKLEMKR : 0.05
ING-1 light chain H31N (Fab, V domains shown, Fab, periplasmic extract) VH: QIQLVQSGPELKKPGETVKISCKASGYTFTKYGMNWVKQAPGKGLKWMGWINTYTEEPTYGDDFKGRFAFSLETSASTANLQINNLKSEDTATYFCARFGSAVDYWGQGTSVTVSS VL: DIVMTQAAFSNPVTLGTSGSISCRSSKSLLNSNGITYLYWYLQKPGQSPQLLIYQMSNLASGVPDRFSSSGSGTDFTLRISRVEAEDVGVYYCAQNLELPRTFGGGTKLEMKR : 0.5

Req: Any idea what fold difference in affinity vs parental ING-1 was measured for ING-1 light chain P100R (Fab, V domains shown, Fab, periplasmic extract) VH: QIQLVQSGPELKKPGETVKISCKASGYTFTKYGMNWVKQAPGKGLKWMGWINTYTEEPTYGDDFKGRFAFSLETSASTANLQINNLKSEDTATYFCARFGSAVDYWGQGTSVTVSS VL: DIVMTQAAFSNPVTLGTSGSISCRSSKSLLHSNGITYLYWYLQKPGQSPQLLIYQMSNLASGVPDRFSSSGSGTDFTLRISRVEAEDVGVYYCAQNLELRRTFGGGTKLEMKR ?
Resp: 0.05

Req: Any idea what fold difference in affinity vs parental ING-1 was measured for ING-1 light chain L99N (Fab, V domains shown, Fab, periplasmic extract) VH: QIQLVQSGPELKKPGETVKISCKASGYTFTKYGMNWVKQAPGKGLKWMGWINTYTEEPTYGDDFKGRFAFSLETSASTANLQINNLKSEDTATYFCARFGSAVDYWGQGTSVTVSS VL: DIVMTQAAFSNPVTLGTSGSISCRSSKSLLHSNGITYLYWYLQKPGQSPQLLIYQMSNLASGVPDRFSSSGSGTDFTLRISRVEAEDVGVYYCAQNLENPRTFGGGTKLEMKR ?
Resp: 2
